Just for reference, patent US9745284B2 is where these values come from.

Target: UniProt O43614
Sequence (O43614 whole entry): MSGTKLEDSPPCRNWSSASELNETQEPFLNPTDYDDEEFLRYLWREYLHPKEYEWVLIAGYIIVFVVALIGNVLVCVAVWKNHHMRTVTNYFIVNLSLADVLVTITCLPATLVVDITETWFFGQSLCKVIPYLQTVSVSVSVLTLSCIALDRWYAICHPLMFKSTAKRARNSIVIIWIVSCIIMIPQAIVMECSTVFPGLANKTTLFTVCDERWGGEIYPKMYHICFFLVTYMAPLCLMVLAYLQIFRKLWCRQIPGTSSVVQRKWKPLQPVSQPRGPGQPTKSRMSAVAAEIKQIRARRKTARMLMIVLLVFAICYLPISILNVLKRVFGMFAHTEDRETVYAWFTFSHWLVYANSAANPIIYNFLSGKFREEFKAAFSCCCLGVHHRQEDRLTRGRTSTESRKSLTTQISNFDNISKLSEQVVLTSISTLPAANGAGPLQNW
Test: FLIPR Ca2+ flux assay, orexin-2 receptor
Conditions: CHO cells expressing human orexin-2 receptor; agonist 70 pM Ala-6,12 orexin-A; read-out: hOX2R FLIPR IC50
QUANTITY: pIC50
# pIC50 is unitless: minus log10 of the molar concentration; print number only

Some solved cases for reference:
COc1ccc(C(=O)N2C[C@H](Oc3cc(OC(C)C)ccn3)CC[C@H]2C)c(-n2nccn2)n1 :: 6.96
C[C@@H]1CC[C@@H](Oc2cc(OC(F)F)ccn2)CN1C(=O)c1cscc1-n1nccn1 :: 7.89
CC(C)Oc1ccnc(O[C@@H]2CC[C@@H](C)N(C(=O)c3ccccc3-c3ncccn3)C2)c1 :: 7.17

Prompt line: Let me know recorded pIC50 for `COc1ccnc(O[C@@H]2CC[C@@H](C)N(C(=O)c3ccccc3C(F)(F)F)C2)c1` , thanks.
Response line: 7.25

Prompt line: Let me know recorded pIC50 for `C[C@@H]1CC[C@@H](Oc2cc(OCC(F)(F)F)ccn2)CN1C(=O)c1ccsc1-n1nccn1` , thanks.
Response line: 7.26

Prompt line: Let me know recorded pIC50 for `C[C@@H]1CC[C@@H](Oc2cc(OCF)ccn2)CN1C(=O)c1ccccc1-n1nccn1` , thanks.
Response line: 8.10

Prompt line: Let me know recorded pIC50 for `CC(C)COc1ccnc(O[C@@H]2CC[C@@H](C)N(C(=O)c3ccccc3-n3nccn3)C2)c1` , thanks.
Response line: 6.87

Prompt line: Let me know recorded pIC50 for `C[C@@H]1CC[C@@H](Oc2cc(OCC(F)F)ccn2)CN1C(=O)c1ccccc1CS(C)(=O)=O` , thanks.
Response line: 7.47
